# Tested on: Fibroblast
# assay_name: Multiplex assay against human fibroblast
# Assay type: toxicity, cell-based
# condition_notes: 24 h, 10 µM, compound concentration 10 uM, replicate 1
result_type: Population Hoechst High Intensity Objects (%)

{"compound": "O=C1NCN(c2ccccc2)C12CCN(CCCOc1ccc(F)cc1)CC2 [SPIRAMIDE]", "measured": 16}
{"compound": "Cc1[nH]c(/C=C2\\C(=O)Nc3ccc(S(=O)(=O)N(C)c4cccc(Cl)c4)cc32)c(C)c1C(=O)N1CCN(C)CC1", "measured": 7}
{"compound": "Cl.N#Cc1ccc2[nH]cc(CCCCN3CCN(c4ccc5oc(C(N)=O)cc5c4)CC3)c2c1 [VILAZODONE HYDROCHLORIDE]", "measured": 35}
{"compound": "CC[C@H](C)C(=O)O[C@H]1C[C@@H](C)C=C2C=C[C@H](C)[C@H](CC[C@@H]3C[C@@H](O)CC(=O)O3)[C@H]21", "measured": 14}
